B1: MNAT1 (parent)
chain: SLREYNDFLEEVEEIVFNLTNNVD

# Variants of: B1
# experiment: protein stability index of a GFP-peptide fusion (GPS, HEK-293T) (PSI 1-6); higher = more stable;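 note: lentivirally expressed fusions sorted by FACS into six bins by GFP to DsRed ratio, PSI derived from sequencing read proportions per bin multiplied by bin number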
# assay_setup: c terminus: a fixed tail appended
Our labelling divides records by protein stability index into ranges: L = under 2, M = from 2 up to 3, H = 3 and over

Worked examples, 6 variants total:
# changes, category
rows = [
    ("V12Q", "H"),
    ("L19E", "H"),
    ("R3P", "H"),
    ("V12C", "M"),
    ("E4L", "M"),
    ("E4M", "M"),
]

Task: # classify by protein stability index band: `D7C`
Result: M

Task: Continue with `D7V`
Result: M

Task: Continue with `N18G`
Result: M

Task: Continue with `E13G`
Result: M

Task: Continue with `L9C`
Result: H

Task: Continue with `T20L`
Result: M

Task: Continue with `Y5M`
Result: L

Task: Continue with `N21Y`
Result: M

Task: Continue with `D24H`
Result: L

Task: Continue with `D24T`
Result: L

Task: Continue with `I15L`
Result: L

Task: Continue with `L9A`
Result: H

Task: Continue with `N22I`
Result: M

Task: Continue with `V16K`
Result: M

Task: Continue with `V23A`
Result: M

Task: Continue with `E4T`
Result: L

Task: Continue with `N6S`
Result: H

Task: Continue with `F8K`
Result: H
